System: Sa (NCTC8325)
Experiment: Broth assay, antibacterial activity (MIC/MBC) against Sa (NCTC8325)
Format: cell-based, Stapphalococcus aureus
Details: Sa (NCTC8325); LB broth, 37° C., 24 h, no growth by OD600; read-out: MIC
Listing of recorded MIC by entry.

For orientation, consider the following solved cases.
# Compound, Assayed System, MIC
measured = [
    ("CCCCCCCCCCCCCCCc1c(Br)ccc(OC)c1C(=O)O [MDBAA]", "Sa (NCTC8325)", "3 to 5 µg/mL"),
    ("CCCCCCCCCCCCCCCc1c([N+](=O)[O-])cc([N+](=O)[O-])c(OC)c1C(=O)O [MDAA]", "Sa (NCTC8325)", "6 µg/mL"),
    ("CCCCCCCCCCCCCCCc1cccc(OC)c1C(=O)O [MAA, 2-Methoxy-6-Pentadecyl-benzoic acid]", "Sa (NCTC8325)", "1 µg/mL"),
    ("CCCCCCCCCCCCCCCc1cccc(OC)c1C(=O)NC1C(=O)N2C1SC(C)(C)C2C(=O)O (stereo not drawn) [MAA-APA]", "Sa (NCTC8325)", "> 10 µg/mL"),
    ("CCCCCCCCCCCCCCCc1cc([N+](=O)[O-])c([N+](=O)[O-])c(OC(C)=O)c1C(=O)O [ANAA]", "Sa (NCTC8325)", "1 µg/mL"),
]

Entry C=C[C@@](C)(/C=C/c1ccc(OC(=O)c2c(CCCCCCCCCCCCCCC)cccc2OC)cc1)CCC=C(C)C [MAA-Ba] has what MIC?
> 10 µg/mL

Would you kindly share the measured MIC for CCCCCCCCCCCCCCCc1c(Br)ccc(O)c1C(=O)O [DBAA] ?
> 10 µg/mL

Data request, read-out MIC, for CCCCCCCCCCCCCCCc1cccc(OC)c1C(=O)NC(Cc1ccc(O)cc1)C(=O)O (stereo not drawn) [MAAY]
3 to 5 µg/mL

For the compound shown here, CCCCCCCCCCCCCCCc1cccc(OC)c1C(=O)Nc1ccc(C(=O)O)cc1 [MAA-PABA] , give the reported MIC.
> 10 µg/mL

What value of measured MIC is listed for CCCCCCCCCCCCCCCc1cccc(OC)c1C(=O)Nc1ccc([N+](=O)[O-])cc1 [MAA-PNA] ?
> 10 µg/mL

For the compound shown here, CCCCCCCCCCCCCCCc1cccc(OC)c1C(=O)NC(Cc1ccccc1)C(=O)O (stereo not drawn) [MAA-F] , give the reported MIC.
> 10 µg/mL

Record request: MIC value, item CCCCCCCCCCCCCCCc1c([N+](=O)[O-])cc([N+](=O)[O-])c(OC(C)=O)c1C(=O)O [ADAA]
2 µg/mL

Request the reported MIC associated with CCCCCCCCCCCCCCCc1c(Br)ccc(OC(C)=O)c1C(=O)O [ADBAA]
> 10 µg/mL

Quick one: MIC for CCCCCCCCCCCCCCCc1cccc(O)c1C(=O)O [AA, 6-pentadecyl salicylic acid, reference compound] ?
> 10 µg/mL

GET /values?readout=MIC&item= CCCCCCCCCCCCCCCc1cccc(OC(C)=O)c1C(=O)O [AAA, 6-Pentadecyl-2-acetyloxybenzoic acid]
6 µg/mL

---

Listed next: entries and their corresponding MBC.
Tested on: Sa (NCTC8325)
Assay: Broth assay, antibacterial activity (MIC/MBC) against Sa (NCTC8325)
Assay type: cell-based, Stapphalococcus aureus
Details: Sa (NCTC8325); reduction in cfu from 10^5 to 10^3 after plating on LB agar; read-out: MBC
Description: The invention specifically relates to the process for the preparation of antimicrobial derivatives of saturated anacardic acid (C15:0). […] The synthesized derivatives were assayed for anti bacterial activity against Stapphalococcus aureus and Methicillin resistant Stapphalococcus aureus and Enterococcus fecalis by the broth assay used for antibiotic susceptibility tests and the minimum inhibitory concentration (MIC) and minimum bactericidal concentration (MBC) determined. […]

What measured MBC goes with CCCCCCCCCCCCCCCc1cccc(OC)c1C(=O)NC(Cc1ccccc1)C(=O)O (centres unmarked) ?
> 10 µg/mL

Requested read-out: MBC. Entry: CCCCCCCCCCCCCCCc1cccc(OC(C)=O)c1C(=O)O
7 to 8 µg/mL

// MBC lookup, key: CCCCCCCCCCCCCCCc1c([N+](=O)[O-])cc([N+](=O)[O-])c(OC(C)=O)c1C(=O)O
6 µg/mL

Query (compound): CCCCCCCCCCCCCCCc1c(Br)ccc(OC)c1C(=O)O ; field requested: MBC
5 µg/mL

Report MBC for CCCCCCCCCCCCCCCc1c([N+](=O)[O-])cc([N+](=O)[O-])c(OC)c1C(=O)O please.
8 µg/mL

---

Tested on: Sa (NCTC8325)
Assay: Broth assay, antibacterial activity (MIC/MBC) against Sa (NCTC8325)
Format: cell-based, Stapphalococcus aureus
Details: Sa (NCTC8325); reduction in cfu from 10^5 to 10^3 after plating on LB agar; read-out: MBC
Reported Metric: MBC

As a guide, the following entries are already answered.
# Compound, MBC
measured = [
    ("CCCCCCCCCCCCCCCc1cccc(OC)c1C(=O)NC1C(=O)N2C1SC(C)(C)C2C(=O)O (stereo not drawn)", "> 10 µg/mL"),
    ("C=C[C@@](C)(/C=C/c1ccc(OC(=O)c2c(CCCCCCCCCCCCCCC)cccc2OC)cc1)CCC=C(C)C", "> 10 µg/mL"),
    ("CCCCCCCCCCCCCCCc1cccc(OC)c1C(=O)Nc1ccc(C(=O)O)cc1", "> 10 µg/mL"),
    ("CCCCCCCCCCCCCCCc1c(Br)ccc(OC(C)=O)c1C(=O)O", "> 10 µg/mL"),
    ("CCCCCCCCCCCCCCCc1cccc(OC)c1C(=O)Nc1ccc([N+](=O)[O-])cc1", "> 10 µg/mL"),
]

Here is another compound to look at.
Requested read-out: MBC. Entry: CCCCCCCCCCCCCCCc1cccc(OC)c1C(=O)O
8 µg/mL

Provenance of the data: patent US8338638B2
